Molecular target: Calmodulin-1 (Homo sapiens) (UniProt P0DP23)
Assay: small molecules binding Ca-loaded calmodulin-1 – biochemical, small-molecule microarray, Cy5-labelled CALM1, plus calcium, artefact control for SMM control-protein annotation, profiling panel (AID 1112);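 further: score merges spot fluorescence with signal to noise from triplicate slides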
Settings: Cy5-CALM1 binding fluorescence, higher = more signal
parameter-measured: composite z-score
Give bare numbers.

Example entries begin here.
Cc1ccc(C(C)CC(O)C2C=CC3C(=O)N(Cc4ccccc4)C(=O)C3N2n2cnnc2)o1 (centres undefined): 0.0454
O=C1C2C=CC(C(O)c3ccc(Br)cc3)N(Nc3ccccc3)C2C(=O)N1c1ccccc1 (centres undefined): 0.29
COCCOC(=O)N1C(=O)[C@@]2(c3ccccc31)[C@H](c1ccccc1OCCO)N1[C@H](c3ccccc3)[C@H](c3ccccc3)OC(=O)[C@H]1[C@@H]2C(=O)N1CCc2cc(OC)c(OC)cc2C1: 0.0498

The measured composite z-score associated with `C[C@@]1([C@@H](NC(=O)c2cccs2)c2ccc(-c3ccccc3)cc2)C[C@H]1C1CCCCC1` reads 0.111

###

Field: composite z-score. Provide a value for each of the compounds that follow.
Test system: Human papillomavirus type 1a protein E7 (residues 44-93)
Assay: small molecules binding HPV E7 44-93 – biochemical, small-molecule microarray, residues 44-93, 635 nm fluorescence, primary screen (AID 1108);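 further: E7 fragment applied at 1 µg/mL in TBST for 1 h at 4 C; score combines spot fluorescence with its signal to noise ratio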
Settings: fluorescence 635 nm, higher = more signal
Answers are plain numbers.

A selection of reference data follows.
COC(=O)[C@@]1(Cc2ccc(OC)cc2)[C@H]2c3cc(C(=O)N(C)C)n(Cc4cc(C)n(C)n4)c3C[C@H]2CN1C(=O)c1ccccc1: 1.52
COCCOC(=O)N1C(=O)[C@@]2(c3cc(C#CCNC(N)=O)ccc31)[C@H](C(N)=O)[C@H]1C(=O)O[C@H](c3ccccc3)[C@H](c3ccccc3)N1[C@@H]2c1ccc(OCCO)cc1: 1.29

List the reported composite z-score of each compound below.
1. COC(=O)c1ccc(OC)c(/C=C\CC(CCc2ccccc2)OC(C)=O)c1 (stereo not drawn)
2. N#Cc1ccc(NN2C(C(O)c3ccccc3)C=CC3C(=O)N(c4ccccc4)C(=O)C32)cc1 (stereo not drawn)

Response given:
1. -0.498
2. 0.117

###

Test: small molecules captured by biotinylated probe aFGF10 – biochemical, small-molecule microarray, fluorescence 635/667, stem cell growth factor project, primary screen (AID 1071);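 further: score merges 667 nm spot intensity and signal to noise from triplicate slides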
Settings: higher = more signal
parameter-measured: composite z-score
Give bare numbers.

Please supply composite z-score for each of the following items, keeping them in order.
1. Cc1ccc(S[C@]2(C(=O)O)CC(=O)N(C3CCCCC3)[C@@H]2c2ccc(CO)cc2)cc1
2. [N-]=[N+]=Nc1ccccc1[C@H]1OC(c2ccc(OCCCO)cc2)=N[C@@]1(Cc1ccccc1)C(=O)NCc1ccccc1
3. COc1ccc([Si](C)(C)[C@@H]2[C@@H](CCO)O[C@]3(C(=O)N(Cc4ccc(N5C(=O)c6ccccc6Oc6ccccc65)cc4)c4ccccc43)[C@H]2C)cc1
4. O=C1N(CCS(=O)(=O)c2ccccc2)Cc2ccccc2C[C@@]12COC(c1ccc(OCCCO)cc1)=N2
5. CCOC(=O)C1=CC[C@@H](c2ccc(N(CC)CC)cc2)N(S(=O)(=O)c2ccc(C)cc2)[C@H]1c1ccc([N+](=O)[O-])cc1
6. Cc1ccccc1C(O)C1C=CC2C(=O)N(Cc3ccccc3)C(=O)C2N1n1cnnc1 (configuration not stated)

Response given:
1. -0.315
2. 0.639
3. -0.124
4. 0.613
5. -0.865
6. 0.304

Working through the 7 compounds below one at a time, give composite z-score for each.
1. O=C1O[C@H](c2ccccc2)[C@H](c2ccccc2)N2[C@H]1[C@@H](C(=O)NC[C@H](O)c1ccccc1)[C@]1(C(=O)Nc3ccccc31)[C@H]2c1ccccc1OCCO
2. Cc1ccc(S[C@]2(C(=O)NCc3ccccc3)CC(=O)N(C3Cc4ccccc4C3)[C@@H]2c2ccc(CO)cc2I)cc1
3. O=C(NCc1ccccc1)[C@]1(Cc2ccccc2)N=C(c2ccc(OCCCO)cc2)O[C@@H]1c1ccccc1
4. CCCNC(=O)[C@@]1(Sc2ccc(C)cc2)CC(=O)N(Cc2ccccc2)[C@@H]1c1ccc(CO)cc1I
5. O=C1OCCC=C[C@H]2OC34C=CCN(Cn5nnc6ccccc65)C(=O)[C@H]3N(CCCCCO)C(=O)[C@@H]4C12 (some centres not stated)
6. OCc1ccc(-c2cc[n+](Cc3cccc(OC(F)(F)F)c3)cc2)cc1
7. CC(C)CN1C(=O)[C@@]2(Cc3ccccc31)c1ccccc1C(=O)N(Cc1ccccc1)[C@H]2c1ccc(CO)cc1

Response given:
0.555
-0.257
0.885
-0.008
-0.328
-0.0076
-0.0466

Below are some compounds; for each one, tell me its composite z-score.
1. COC(=O)[C@]1(Cc2ccccc2CN=[N+]=[N-])N=C(c2ccc(OCCCO)cc2)O[C@@H]1c1ccccc1CN=[N+]=[N-]
2. CN1C(=O)C2C=CC(C(O)c3ccc(F)cc3)N(N3CCCCC3)C2C1=O (configuration not stated)
3. C=CC[C@@]1(C(=O)NCCN2CCOCC2)N=C(c2ccc(OCCCO)cc2)O[C@@H]1c1ccccc1
4. C=CCNC(=O)[C@H]1[C@@H]2C(=O)O[C@@H](c3ccccc3)[C@@H](c3ccccc3)N2[C@@H](c2ccc(O)cc2)[C@]12C(=O)N(C(=O)OCCOC)c1ccc(C#CC3(O)CCCCCC3)cc12

Response given:
[0.013, 0.139, 0.66, 0.875]
